// reported TGI per item
# Test system: MDA-MB-435
# Experiment Summary: NCI tumour cell line growth inhibition, 48 h
Quantity Kind: TGI (µM)

COc1ccc(/C=C/c2cc(N3CCOCC3)c3cc(F)c(F)cc3n2)cc1OC = 12.8
O=C(CCc1ccc(O)c(O)c1)NCCc1cc(OCc2ccccc2)cc(OCc2ccccc2)c1 = 60.8
CNC(C)C(=O)N[C@H](C(=O)N1CCC[C@@H]1CN(CCc1ccccc1)C(=O)C(F)(F)F)[C@H](C)OCC#CC#CCO[C@H](C)[C@H](NC(=O)[C@H](C)NC)C(=O)N1CCC[C@H]1CN(CCc1ccccc1)C(=O)C(F)(F)F (some centres undefined) = 3.46

====

# System: SNB-75 CNS
# Experiment Summary: NCI tumour cell line growth inhibition, 48 h
Quantity Kind: TGI

C=C(C)[C@@H]1CCC2=C[C@@H](OC2=O)[C@@H](C(=C)C)C(=O)/C=C(/C)C(=O)C1 = > 100 µM
CN(C)CCN=Cc1c2ccccc2c(=O)n2c1oc1ccccc12 = 22.2 µM
COC(=O)N/N=C/c1oc(-c2ccccc2)c(-c2ccccc2)c1[N+](=O)[O-] = > 100 µM
Cc1ccc(-n2c(Cn3nnc(-c4cccnc4)n3)nn(C3OC(COC(=O)c4ccccc4)C(OC(=O)c4ccccc4)C3OC(=O)c3ccccc3)c2=S)cc1 (stereo not drawn) = > 100 µM
CCCC(=O)OC[n+]1cccc(-c2c(COC(=O)NC(C)C)c(COC(=O)NC(C)C)c3n2CCC3)c1 = > 100 µM
CC(=O)O[C@H]1CC[C@@]2(C)C(=CC[C@@H]3[C@@H]2CC[C@]2(C)C(=N/O)/C(=C/c4ccc([N+](=O)[O-])cc4)C[C@@H]32)C1 = 40.5 µM
O=C(N/N=C1/C(=O)c2c3ccccc3cc3cccc1c23)c1cccc(Cl)c1 = > 100 µM
COC(=O)[C@H](CC(C)C)NC(=O)NC(=O)NC(=O)CI = 28.6 µM

====

# Tested on: COLO 205 colon
# Experiment Summary: NCI tumour cell line growth inhibition, 48 h; in the data active means GI50 below about 0.43 µM; inactive means the rest
Labels: true (1) (active), false (0) (inactive)

O=C1/C(=C\c2coc3ccccc3c2=O)c2ccccc2N1c1c(Cl)cccc1Cl = false (0)
COc1ccc(-c2nn(-c3cccc(NC(=O)Nc4cc(C(F)(F)F)cc(C(F)(F)F)c4)c3)cc2-c2ccncc2)cc1Cl = false (0)
N#Cc1c(-c2ccccc2)cc(-c2ccccc2)n(CCCCC(=O)NO)c1=O = false (0)
COC(=O)[C@@]1(C)CC[C@]2(C)CC[C@]3(C)C4=CC=C5C(=CC(=O)C(O)=C5C)[C@]4(C)CC[C@@]3(C)[C@@H]2C1 = true (1)

====

# Test system: DU-145 prostate
# Experiment Summary: NCI tumour cell line growth inhibition, 48 h; in the data active = GI50 below about 0.43 µM; inactive = the rest
Labels: active, inactive

c1ccc(-c2nn(-c3ccccc3)[n+](-c3cccc4ccccc34)n2)cc1 = inactive
OC(COc1cccc2ccccc12)CN1CCN(c2ccccc2)CC1 (centres undefined) = inactive
C=C(C)[C@@H]1CCC2=C[C@@H](OC2=O)[C@@H](C(=C)C)C(=O)/C=C(/C)C(=O)C1 = inactive
CCOC(=O)C1=C(C)NC2SC(=O)/C(=C\c3ccccc3)N2C1c1ccccc1 (centres undefined) = inactive
COc1cc([C@@H]2c3cc4c(cc3[C@@H](O[C@@H]3O[C@@H]5CO[C@@H](c6cccs6)O[C@H]5[C@H](O)[C@H]3O)[C@H]3COC(=O)[C@H]23)OCO4)cc(OC)c1O = active
C/C(=C\CCc1ccoc1)CC/C=C(\C)CCCN1CCC(CO)CC1 = inactive
CCCCN(CCCC)CCCN=c1nc2c(c(N)n1-c1ccccc1)c(=S)n(-c1ccccc1)c(=S)n2-c1ccccc1 = inactive
O=C1C(Cl)=C(Nc2cccc(O)c2)C(=O)N1c1ccc(Cl)c(Cl)c1 = inactive
CC1=C([Se]CC(OC(=O)[C@@H](CO)NC(=O)OC(C)(C)C)C(=O)NC(C)(C)C)C(=O)c2ccccc2C1=O (some centres undefined) = inactive

Cited source for all entries: PubChem BioAssay (NCI)
